System tested: Homeobox protein Hox-A13 (Mus musculus)
Assay protocol: inhibitors of HoxA13-DNA binding, primary screen, biochemical, fluorescence polarization, labeled oligonucleotide (AID 1185)
Condition context: 15 min, higher = more signal, called active from +8 up or from −8 down
Recorded metric: z-score
Respond with the number and no other words.

**Query** Retrieve z-score measured for "CON=C(C)CCC(=O)OC[C@H]1O[C@H](C#Cc2ccccc2)C=C[C@@H]1Oc1ccc(C)cc1" and print it.
**Result** -4.45

**Query** For CCOC(=O)[C@H](Cc1ccccc1)NC(=O)CCC1CC(OC(=O)NCc2ccc3c(c2)OCO3)CC2(CCCC(COC(=O)NCCOc3ccccc3)O2)O1 (some centres not stated) , write its z-score.
**Result** -0.985

**Query** Tell me its z-score given "O=C1[C@H]2CCn3c(=O)n(-c4ccccc4)c(=O)n3[C@H]2[C@H](O)[C@@H]2O[C@H]12" as the entry.
**Result** -0.418

**Query** Fill in z-score for record "CCCNC(=O)OC[C@H]1O[C@H](CCON=C2C[C@@H](O)[C@@H](O)[C@@H]3[C@@H]4C(=O)N(CC)C(=O)[C@@H]4CC[C@@H]23)C=C[C@@H]1Oc1ccc(OC)cc1"
**Result** -7.64

**Query** Read the entry CCOC(=O)[C@H](CC(C)C)NC(=O)CCC1CC(OC(=O)NCCc2ccc(F)cc2)CC2(CCCC(COC(=O)NCCCN3CCCC3=O)O2)O1 (some centres not stated) and write its reported z-score.
**Result** -6.3

**Query** Report measured z-score; entry is CCOC(=O)[C@H](CC(C)C)NC(=O)CCC1CC(OC(=O)NCCc2ccc(F)cc2)CC2(CCCC(COC(=O)NCCOC)O2)O1 (some centres not stated)
**Result** -6.12

**Query** Kindly indicate its recorded z-score. Item: "C[C@H]1CC[C@H]2C(=O)O[C@H](CO)CN2[C@@H]1c1ccc(Br)cc1"
**Result** -3.98

* * *

Assay protocol: binders of probe aFGF2 on microarray, primary screen, stem cell growth factor project, biochemical, small-molecule microarray, fluorescence 635/667 (AID 1067);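 also: measures binding of biotinylated aFGF2 protein to printed compounds on slides; z-score merges feature fluorescence and signal-to-noise across triplicate slides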
Condition context: higher = more signal
Provide the recorded composite z-score for the entries that follow.
API doc: respond with a numeric literal and nothing else, no unit.

**Query** Indicate the recorded composite z-score value for this compound: "O=C1[C@H]2[C@H]3[C@H](O)[C@H](O)CC(=NO[C@@H]4O[C@H](CO)[C@@H](O)[C@H](O)[C@H]4O)[C@H]3CC[C@H]2C(=O)N1C[C@@H]1CCCO1"
**Result** -0.121

**Query** Complete the entry with composite z-score for "C#CCCCON=C1[C@H]2CCn3c(=O)n([C@@H](CC)c4ccccc4)c(=O)n3[C@H]2[C@H](O)[C@@H]2O[C@H]12"
**Result** 0.0047

**Query** Specify composite z-score for COC(=O)CC=C[C@@H](C)[C@@H](C=NOC(C)CN1CCCc2nc(C)c(C)cc21)NS(=O)(=O)c1ccc(C)cc1 (stereo not given in full) and stop.
**Result** -0.0202

**Query** Indicate its recorded composite z-score; the compound in question is COC(=O)C(C(=O)OC)C1CCCC(=O)C1 (stereo not given)
**Result** -0.0611

**Query** Answer with the recorded composite z-score of "COC(=O)[C@@H]1CC[C@H](C)[C@@H](c2ccc(C)cc2)N1C(=O)c1ccc(C=NOC[C@H]2O[C@H](c3ccccc3)C=C[C@@H]2Oc2ccc(OC)cc2)cc1" only.
**Result** -0.154

**Query** Respond only with composite z-score recorded for "COc1ccc(COC(=O)NN=C2C[C@@H](O)[C@@H](O)[C@@H]3[C@@H]4C(=O)N(C[C@@H]5CCCO5)C(=O)[C@@H]4CC[C@H]23)cc1"
**Result** -0.076

**Query** Please report the measured composite z-score for COC(=O)[C@H](C)NC(=O)CCC1CC(OC(=O)NCc2ccc3c(c2)OCO3)CC2(CCCC(COC(=O)NCCCN3CCCC3=O)O2)O1 (stereo not given in full)
**Result** -0.0397

**Query** Supply recorded composite z-score for COC(=O)[C@H](C)NC(=O)CCC1CC(OC(=O)NCCc2ccc(F)cc2)CC2(CCCC(COC(=O)NCCc3ccccc3OC)O2)O1 (stereo not given in full) here.
**Result** -0.172

**Query** Quickly give me recorded composite z-score for "C[C@H]1C=CCC(=O)OC[C@H](C)C(=O)N2CCC[C@H]2C(=O)OC1"
**Result** -0.291

**Query** Fill in reported composite z-score for this entry: "O=C1[C@H]2[C@H]3[C@H](O)[C@H](O)CC(=NO[C@@H]4O[C@H](CO)[C@@H](O)[C@H](O)[C@H]4O)[C@@H]3CC[C@H]2C(=O)N1C[C@@H]1CCCO1"
**Result** -0.0908

**Query** Query composite z-score for "CSCC[C@@H]1NC(=O)CC=C[C@@H](C)COC(=O)[C@H](C)COC1=O"
**Result** -0.355

**Query** Name the recorded composite z-score of the compound listed here: O=C(NCCC[N+]1=CC=NC1c1ccccc1)N1CCCc2nc(-c3ccc(Br)cc3)ccc21 (stereo not given)
**Result** -0.107

**Query** Recall and state the measured composite z-score for "CCOC(=O)CCN1C(=O)[C@H]2[C@H]3[C@H](O)[C@H](O)CC(=NNC(=O)OCc4ccccc4)[C@H]3CC[C@H]2C1=O" .
**Result** -0.133

**Query** Give a short answer stating reported composite z-score for CCN1C(=O)[C@H]2[C@H]3[C@H](O)[C@H](O)CC(=NOC(C)CN4CCCc5nc(C)c(C)cc54)[C@@H]3CC[C@H]2C1=O (stereo not given in full) .
**Result** -0.0468

**Query** For the compound "O=C1C2=CC[C@H]3C(=O)N(C4CCCCC4)C(=O)[C@H]3[C@H]2[C@H](O)[C@@H]2O[C@H]12" , give its measured composite z-score value.
**Result** -0.162
